The entries below are paired with their reported Ki.
Target: Tripeptidyl-peptidase 2 (Rattus norvegicus)
Sequence (Q64560 whole entry): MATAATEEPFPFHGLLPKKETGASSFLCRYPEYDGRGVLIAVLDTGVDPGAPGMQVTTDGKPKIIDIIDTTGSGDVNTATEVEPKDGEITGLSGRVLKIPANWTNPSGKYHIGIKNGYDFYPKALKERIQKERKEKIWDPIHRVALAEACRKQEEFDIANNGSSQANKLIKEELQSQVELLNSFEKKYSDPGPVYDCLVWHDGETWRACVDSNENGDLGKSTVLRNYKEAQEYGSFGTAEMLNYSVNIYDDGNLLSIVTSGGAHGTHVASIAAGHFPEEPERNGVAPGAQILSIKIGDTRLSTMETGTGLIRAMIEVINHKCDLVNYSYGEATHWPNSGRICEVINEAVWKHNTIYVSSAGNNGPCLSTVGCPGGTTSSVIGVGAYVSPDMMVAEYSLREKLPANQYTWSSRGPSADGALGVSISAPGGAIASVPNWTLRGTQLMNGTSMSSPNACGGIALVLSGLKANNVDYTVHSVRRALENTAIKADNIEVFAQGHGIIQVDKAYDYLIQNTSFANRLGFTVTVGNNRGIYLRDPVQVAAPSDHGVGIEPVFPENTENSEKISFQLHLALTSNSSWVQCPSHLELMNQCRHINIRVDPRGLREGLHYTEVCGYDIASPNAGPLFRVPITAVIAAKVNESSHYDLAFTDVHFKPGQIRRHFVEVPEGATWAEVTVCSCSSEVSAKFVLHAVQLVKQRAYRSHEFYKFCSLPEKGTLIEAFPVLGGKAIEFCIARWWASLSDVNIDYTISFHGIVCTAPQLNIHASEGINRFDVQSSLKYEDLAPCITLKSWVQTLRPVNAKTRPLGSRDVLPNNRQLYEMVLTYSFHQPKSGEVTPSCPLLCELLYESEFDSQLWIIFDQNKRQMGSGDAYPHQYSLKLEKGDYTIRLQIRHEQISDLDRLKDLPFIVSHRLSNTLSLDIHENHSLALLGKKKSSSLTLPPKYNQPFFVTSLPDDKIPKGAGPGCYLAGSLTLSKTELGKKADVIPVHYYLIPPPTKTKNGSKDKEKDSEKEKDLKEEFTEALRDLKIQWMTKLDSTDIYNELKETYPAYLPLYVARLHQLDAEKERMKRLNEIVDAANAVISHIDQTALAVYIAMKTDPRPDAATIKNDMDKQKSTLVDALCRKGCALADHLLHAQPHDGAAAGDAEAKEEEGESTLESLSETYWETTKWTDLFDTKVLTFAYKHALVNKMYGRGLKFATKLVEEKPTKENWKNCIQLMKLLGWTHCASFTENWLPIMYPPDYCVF
Where a SMILES comes first, the peptide text is derived from it. [ ]: non-standard residue; d: D form. The star is where a group is joined. Nva = CCC[C@H](N)C(=O)O; Cbz = O=C(OCc1ccccc1)*

Would you please look over these solved cases?
CCC[C@H](NC(=O)[C@@H](NC(C)=O)C(C)C)C(=O)O (Ac-Val-[Nva]-OH); > 0.5 mM
CSCC[C@@H](N)C(=O)N[C@H](CCSC)C(=O)O (H-[dM]-[dM]-OH); > 5 mM

Turning now to a further compound:
The value of Ki measured for the compound CC(C)C(NC(=O)C(NC(=O)OCc1ccccc1)C(C)C)C(=O)O (stereo not drawn) (Cbz-Val-Val-OH; configuration not given here) turned out to be > 5 mM
